Sourced from patent US20180291110A1

- measurementTarget: T1, human transferrin receptor (recombinant, for surface plasmon resonance) (human, UniProt P02786 89-760)
- T1 construct: also called huTfR; human transferrin receptor-biotinylated
- T1 sequence (P02786 89-760 limits assumed): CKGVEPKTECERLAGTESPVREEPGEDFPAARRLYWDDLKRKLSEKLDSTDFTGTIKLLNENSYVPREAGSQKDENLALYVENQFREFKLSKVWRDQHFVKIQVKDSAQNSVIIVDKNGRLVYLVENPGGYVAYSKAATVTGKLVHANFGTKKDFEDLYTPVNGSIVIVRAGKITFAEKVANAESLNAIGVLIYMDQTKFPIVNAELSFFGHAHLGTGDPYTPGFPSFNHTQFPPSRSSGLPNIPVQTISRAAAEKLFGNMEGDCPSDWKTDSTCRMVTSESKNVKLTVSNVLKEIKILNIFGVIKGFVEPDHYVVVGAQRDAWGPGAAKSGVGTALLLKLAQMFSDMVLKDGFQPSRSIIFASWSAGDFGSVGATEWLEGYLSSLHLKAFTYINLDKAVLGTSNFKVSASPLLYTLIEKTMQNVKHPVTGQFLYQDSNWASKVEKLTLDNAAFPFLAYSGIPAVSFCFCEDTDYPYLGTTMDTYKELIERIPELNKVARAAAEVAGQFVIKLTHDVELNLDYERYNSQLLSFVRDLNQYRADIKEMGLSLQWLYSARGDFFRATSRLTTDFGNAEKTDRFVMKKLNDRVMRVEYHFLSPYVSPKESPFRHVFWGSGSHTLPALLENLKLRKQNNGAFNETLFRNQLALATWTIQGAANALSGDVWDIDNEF
- assayName: SPR 25C
quantityMeasured: koff (s⁻¹)
Output spec: scalar in s⁻¹, unitless text.

Value lookup for koff; key = 2/99 VH21/VL3 (antibody, V domains shown) VH: QSMQESGPGLVKPSQTLSLTCTVSGFSLSSYAMSWIRQHPGKGLEWIGYIWSGGSTDYASWAKSRVTISVDTSKNQVSLKLSSVTAADTAVYYCARRYGTSYPDYGDANGFDPWGQGTLVTVSS VL: AYQMTQSPSSLSASVGDRVTITCRASQSISSYLNWYQQKPGKAPKLLIYRASTLASGVPSRFSGSGSGTDFTLTISSLQPEDFATYYCQQSYSSSNVDNTFGGGTKVEIK
0.00194

I'd like to know its koff. The binder in question is 2/99 VH8/VL8 (antibody, V domains shown) VH: QQLVETGGGLIQPGGSLRLSCAASGFSLSSYAMSWVRQAPGKGLEWIGYIWSGGSTDYASWAKGRFTISKTSTTLYLQMNSLRAEDTAVYYCARRYGTSYPDYGDANGFDPWGQGTLVTVSS VL: AYQLTQSPSSLSASVGDRVTITCRASQSISSYLSWYQQKPGKAPKLLIYRASTLASGVPSRFSGSGSGTDFTLTISSLQPEDFATYYCQQSYSSSNVDNTFGGGTKVEIK
0.00116

Param item = 2/99 VH23-DANG/VL14 (antibody, V domains shown) VH: QSMQESGPGLVKPSQTLSLTCTVSGFSLSSYAMSWIRQHPGKGLEWIGYIWSGGSTDYASWAKSRVTISKTSTTVSLKLSSVTAADTAVYYCARRYGTSYPDYGDANGFDPWGQGTLVTVSS VL: DIVMTQSPDSLAVSLGERATINCKSSQSISSYLSWYQQKPGQRPKLLIYRASTLASGVPDRFSGSGSGTDFTLTISSLQAEDVAVYYCQQSYSSSNVDNTFGGGTKVEIK ; retrieve measured koff.
0.000733

// query koff value for entry 2/99 VH1/VL5 (antibody, V domains shown) VH: VQLVETGGGLIQPGGSLRLSCAASGFSLSSYAMSWVRQAPGKGLEWVGYIWSGGSTDYADSVKGRFTISRDNSKNTLYLQMNSLRAEDTAVYYCARRYGTSYPDYGDANGFDPWGQGTLVTVSS VL: DIQMTQSPSSLSASVGDRVTITCRASQSISSYLSWYQQKPGKAPKLLIYRASTLASGVPSRFSGSGSGTDFTLTISSLQPEDFATYYCQQSYSSSNVDNTFGGGTKVEIK
0.00271

Look at this binder and give its reported koff. 2/99 VH2/VL4 (antibody, V domains shown) VH: EVQLVETGGGLIQPGGSLRLSCAASGFSLSSYAMSWVRQAPGKGLEWVGYIWSGGSTDYADSVKGRFTISRDNSKNTLYLQMNSLRAEDTAVYYCARRYGTSYPDYGDANGFDPWGQGTLVTVSS VL: AYQMTQSPSSLSASVGDRVTITCRASQSISSYLSWYQQKPGKAPKLLIYRASTLASGVPSRFSGSGSGTDFTLTISSLQPEDFATYYCQQSYSSSNVDNTFGGGTKVEIK
0.00263

Query: koff; subject: 2/99 VH6/VL17 (antibody, V domains shown) VH: QQLVETGGGLIQPGGSLRLSCAASGFSLSSYAMSWVRQAPGKGLEWIGYIWSGGSTDYADSVKGRFTISRDNSKNTLYLQMNSLRAEDTAVYYCARRYGTSYPDYGDANGFDPWGQGTLVTVSS VL: AIQLTQSPSSLSASVGDRVTITCRASQSISSYLAWYQQKPGKAPKLLIYRASTLASGVPSRFSGSGSGTDFTLTISSLQPEDFATYYCQQTYSSSNVDNTFGGGTKVEIK
0.00717

Using the record for 2/99 VH9/VL17 (antibody, V domains shown) VH: QQLLESGGGLVQPGGSLRLSCAASGFTFSSYAMSWVRQAPGKGLEWVGYIWSGGSTDYADSVKGRFTISRDNSKNTLYLQMNSLRAEDTAVYYCAKRYGTSYPDYGDANGFDPWGQGTLVTVSS VL: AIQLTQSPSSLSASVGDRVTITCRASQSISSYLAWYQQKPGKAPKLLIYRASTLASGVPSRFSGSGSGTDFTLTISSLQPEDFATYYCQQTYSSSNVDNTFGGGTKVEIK , report its koff.
0.00425

Request the reported koff associated with 2/99 VH22/VL6 (antibody, V domains shown) VH: QSMQESGPGLVKPSQTLSLTCTVSGFSLSSYAMSWVRQHPGKGLEWIGYIWSGGSTDYASWAKSRVTISVDTSKNQVSLKLSSVTAADTAVYYCARRYGTSYPDYGDANGFDPWGQGTLVTVSS VL: AIQLTQSPSSLSASVGDRVTITCRASQSISSYLSWYQQKPGKAPKLLIYRASTLASGVPSRFSGSGSGTDFTLTISSLQPEDFATYYCQQSYSSSNVDNTFGGGTKVEIK
0.00214

Field request: koff | item: 2/99 VH18/VL14 (antibody, V domains shown) VH: QVQLQESGPGLVKPSQTLSLTCTVSGFSLSSYAMSWIRQHPGKGLEWIGYIWSGGSTDYAPSLKSRVTISVDTSKNQFSLKLSSVTAADTAVYYCARRYGTSYPDYGDANGFDPWGQGTLVTVSS VL: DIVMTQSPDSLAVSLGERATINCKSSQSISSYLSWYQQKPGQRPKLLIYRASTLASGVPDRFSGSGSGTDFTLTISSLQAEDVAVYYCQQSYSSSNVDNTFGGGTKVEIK
0.003

Dear colleague, I am looking for the recorded koff of the following binder: 2/99 VH19/VL17 (antibody, V domains shown) VH: QSMQESGPGLVKPSQTLSLTCTVSGFSLSSYAMSWIRQHPGKGLEWIGYIWSGGSTDYAPSLKSRVTISVDTSKNQFSLKLSSVTAADTAVYYCARRYGTSYPDYGDANGFDPWGQGTLVTVSS VL: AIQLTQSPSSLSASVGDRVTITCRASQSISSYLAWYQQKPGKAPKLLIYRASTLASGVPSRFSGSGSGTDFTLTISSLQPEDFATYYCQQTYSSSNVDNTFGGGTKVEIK
0.001
